// data source = the supplement of paper PMC9233669

Tested on: biotinyl-Trp-oxazolone
Experiment: self-aminoacylation, catalytic enhancement (BWO) (fold over background); higher = more active; k-Seq, kA / k0A0; sequences stand for … in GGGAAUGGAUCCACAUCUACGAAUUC…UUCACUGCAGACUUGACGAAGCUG
This sample holds only a part of the variants without activity.
The following ranges of self-aminoacylation define the classes used here: low interval (below 0.8), middle interval (0.8 to below 3), high interval (3 or more)

>  <residues>
UCACUCUUCAAGCAAUCGGUC [Fam1B.1 aminoacylation ribozyme variant]

>  <class-assignment>
high interval

$$$$
>  <residues>
CUACUUCAAACAAUCUGGCUG [Fam1A.1 aminoacylation ribozyme variant]

>  <class-assignment>
low interval

$$$$
>  <residues>
AUUCACCAAGGUCAUCGGGUA [Fam2.2 aminoacylation ribozyme variant]

>  <class-assignment>
high interval

$$$$
>  <residues>
AACUUUGCUAAUAGUCGCCAG [Fam3.1 aminoacylation ribozyme variant]

>  <class-assignment>
middle interval

$$$$
>  <residues>
AUACUUCAAACAGUCGGUCUG [Fam1A.1 aminoacylation ribozyme variant]

>  <class-assignment>
middle interval

$$$$
>  <residues>
AAGUUUGCUAAUAUUCGCGAG [Fam3.1 aminoacylation ribozyme variant]

>  <class-assignment>
high interval

$$$$
>  <residues>
AUUCUGCUAGGUCAUCGGGUG [Fam2.2 aminoacylation ribozyme variant]

>  <class-assignment>
high interval

$$$$
>  <residues>
CCACACUUCAAGCAACCGGGC [Fam1B.1 aminoacylation ribozyme variant]

>  <class-assignment>
high interval

$$$$

Enquiry: Entry CUAUUUCAAACAAUCGGUCUU [Fam1A.1 aminoacylation ribozyme variant] belongs to which category?
Return: middle interval

Enquiry: Exercise: read the entry UCACACUUCGAGCAAUCGGUC [Fam1B.1 aminoacylation ribozyme variant] and state which class it falls under.
Return: middle interval

Enquiry: State the class of the sequence shown: CCACACUUCCAGCAGUCGGUC [Fam1B.1 aminoacylation ribozyme variant]
Return: low interval

Enquiry: Band of AUUCACCUCGGUCAGCGGGUG [Fam2.2 aminoacylation ribozyme variant] ?
Return: high interval

Enquiry: Lab note: sort CUACGUCAGACAAUCGGUCUG [Fam1A.1 aminoacylation ribozyme variant] into the matching self-aminoacylation band.
Return: middle interval
